molecular target: STING (Homo sapiens, UniProt Q86WV6, G230A/H232R/R293Q/R71H); assay: STING reporter assay: luciferase reporter activity in THP1-Dual KO-IFNAR2 cells stimulated with 2'3'cGAMP; settings: 2′3′cGAMP 15 μM final, 24h, read-out: hSTING: EC50
Sequence (Q86WV6 whole entry R71H/G230A/H232R/R293Q): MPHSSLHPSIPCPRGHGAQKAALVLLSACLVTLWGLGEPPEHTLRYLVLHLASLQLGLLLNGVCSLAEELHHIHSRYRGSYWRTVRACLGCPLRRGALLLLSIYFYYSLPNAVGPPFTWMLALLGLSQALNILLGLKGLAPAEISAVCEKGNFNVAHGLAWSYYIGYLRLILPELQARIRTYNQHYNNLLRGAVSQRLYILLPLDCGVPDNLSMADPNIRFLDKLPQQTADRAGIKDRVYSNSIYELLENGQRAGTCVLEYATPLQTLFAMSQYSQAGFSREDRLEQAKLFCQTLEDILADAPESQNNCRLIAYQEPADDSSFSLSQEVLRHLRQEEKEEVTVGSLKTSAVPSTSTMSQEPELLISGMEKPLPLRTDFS
pEC50: −log10 of the molar value.
MEASURED ATTRIBUTE: pEC50

Here is how some molecules turned out for pEC50.
> print(dat)
                                   molecule      observed
1  O=C(Nc1c[nH]c2cc(F)c(F)cc12)C(=O)NC1CCOC2(CCCC2)C1 (single isomer, unassigned) [Compound 243]  5.30 to 6.00
2  O=C(Nc1c[nH]c2cc(F)c(F)cc12)C(=O)NC1CCCC2(CCCCC2)C1 (single isomer, unassigned) [Compound 257]  6.00 to 6.70
3  O=C(NCCc1ccc(C(F)(F)F)cc1)C(=O)Nc1c[nH]c2cc(F)c(F)cc12 [Compound 144]  6.00 to 6.70
4  CCC1CCN(C(=O)C(=O)Nc2c[nH]c3cc(F)c(F)cc23)CC1 [Compound 117]  5.30 to 6.00
5  CC(C)(C)C1CCC(NC(=O)C(=O)Nc2c[nH]c3cc(F)c(F)cc23)CC1 (stereo not drawn) [Compound 191]  6.00 to 6.70

QUERY: Look up pEC50 for this molecule: Cc1ccc(O[C@H]2C[C@H](NC(=O)C(=O)Nc3c[nH]c4cc(F)c(F)cc34)C2)nc1 [Compound 199]
RESULT: 6.70 to 7.40
